# assay.target: FGFR2 (Homo sapiens (Human))
# Sequence (P21802 22-821): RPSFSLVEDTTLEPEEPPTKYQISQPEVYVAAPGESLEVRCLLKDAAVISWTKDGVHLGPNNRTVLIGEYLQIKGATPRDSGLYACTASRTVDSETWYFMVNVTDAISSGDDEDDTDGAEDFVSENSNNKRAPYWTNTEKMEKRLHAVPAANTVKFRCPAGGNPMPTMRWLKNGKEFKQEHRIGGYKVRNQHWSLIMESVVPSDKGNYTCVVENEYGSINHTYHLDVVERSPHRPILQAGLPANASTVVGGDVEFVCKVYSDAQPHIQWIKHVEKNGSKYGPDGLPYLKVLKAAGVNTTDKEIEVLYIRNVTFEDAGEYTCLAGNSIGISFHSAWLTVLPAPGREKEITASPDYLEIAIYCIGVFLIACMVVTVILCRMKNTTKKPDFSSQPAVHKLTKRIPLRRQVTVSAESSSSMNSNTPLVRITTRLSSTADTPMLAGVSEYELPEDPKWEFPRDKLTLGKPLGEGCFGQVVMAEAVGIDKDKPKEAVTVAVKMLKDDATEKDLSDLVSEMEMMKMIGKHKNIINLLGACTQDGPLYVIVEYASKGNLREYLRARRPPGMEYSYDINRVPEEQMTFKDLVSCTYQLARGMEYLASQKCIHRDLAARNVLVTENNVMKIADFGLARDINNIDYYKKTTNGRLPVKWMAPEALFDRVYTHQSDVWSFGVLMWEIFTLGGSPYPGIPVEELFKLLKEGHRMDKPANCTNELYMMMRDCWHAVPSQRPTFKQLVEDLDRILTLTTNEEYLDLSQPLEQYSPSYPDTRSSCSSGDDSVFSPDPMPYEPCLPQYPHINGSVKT
# procedure.summary: Kinase assay, binding constants (Kd), kinase-tagged T7 phage, qPCR
Entries and their Kd
readout.kind: Kd

>>> assay_value("CC(C)N1CC(n2cc(-c3n[nH]c4ccc(O[C@H](C)c5c(Cl)cncc5Cl)cc34)cn2)C1")
"1 to 20 nM"
>>> assay_value("C[C@@H](Oc1ccc2[nH]nc(-c3cnc(N4CC[C@H]4CO)c(C#N)c3)c2c1)c1c(Cl)cncc1Cl")
"20 to 100 nM"
>>> assay_value("C[C@@H](Oc1ccc2[nH]nc(-c3cnc(N4CCC[C@H]4CO)c(C#N)c3)c2c1)c1c(Cl)cncc1Cl")
"20 to 100 nM"
>>> assay_value("Cc1cnnc(C)c1[C@H](C)Oc1ccc2[nH]nc(-c3cnc(N4CC5(CCS(=O)(=O)C5)C4)nc3)c2c1")
"> 300 nM"
>>> assay_value("COc1cc2[nH]nc(-c3cnc(N4CC5(CCCS(=O)(=O)C5)C4)c(C#N)c3)c2cc1O[C@H](C)c1c(Cl)cncc1Cl")
"1 to 20 nM"
>>> assay_value("CC(C)N1CCC(n2cc(-c3n[nH]c4ccc(O[C@H](C)c5c(Cl)cncc5Cl)cc34)cn2)CC1")
"1 to 20 nM"
>>> assay_value("COc1cc2[nH]nc(-c3cnc(N4CCC4)c(C#N)c3)c2cc1O[C@H](C)c1c(C)cnnc1C")
"20 to 100 nM"
>>> assay_value("C[C@@H](Oc1ccc2[nH]nc(-c3cnc(N4CCNCC4)c(F)c3)c2c1)c1c(Cl)cncc1Cl")
"1 to 20 nM"
>>> assay_value("C[C@@H](Oc1ccc2[nH]nc(-c3ccc(Cl)nc3)c2c1)c1c(Cl)cncc1Cl")
"20 to 100 nM"
>>> assay_value("COc1cc2[nH]nc(-c3cnc(N4CCCC4)c(C#N)c3)c2cc1O[C@H](C)c1c(Cl)cncc1Cl")
"100 to 300 nM"
>>> assay_value("C[C@@H](Oc1ccc2[nH]nc(-c3ccc(N4CCN(C)CC4=O)nc3)c2c1)c1c(Cl)cncc1Cl")
"20 to 100 nM"
>>> assay_value("C[C@@H](Oc1ccc2[nH]nc(-c3ccc(N4CC5(CCCNC5)C4)nc3)c2c1)c1c(Cl)cncc1Cl")
"1 to 20 nM"
>>> assay_value("C[C@@H](Oc1ccc2[nH]nc(-c3cnc(N4CC[C@H](O)C4)c(C#N)c3)c2c1)c1c(Cl)cncc1Cl")
"20 to 100 nM"
>>> assay_value("C[C@@H](Oc1ccc2[nH]nc(-c3cnc(N4CCC5(CC4)CCS(=O)(=O)C5)nc3)c2c1)c1c(Cl)cncc1Cl")
"20 to 100 nM"
>>> assay_value("COc1cc(-c2n[nH]c3ccc(O[C@H](C)c4c(Cl)cncc4Cl)cc23)cnc1N1CCOCC1")
"> 300 nM"

---

# assay.target: FGFR3 (Homo sapiens (Human))
# Sequence (P22607 23-806): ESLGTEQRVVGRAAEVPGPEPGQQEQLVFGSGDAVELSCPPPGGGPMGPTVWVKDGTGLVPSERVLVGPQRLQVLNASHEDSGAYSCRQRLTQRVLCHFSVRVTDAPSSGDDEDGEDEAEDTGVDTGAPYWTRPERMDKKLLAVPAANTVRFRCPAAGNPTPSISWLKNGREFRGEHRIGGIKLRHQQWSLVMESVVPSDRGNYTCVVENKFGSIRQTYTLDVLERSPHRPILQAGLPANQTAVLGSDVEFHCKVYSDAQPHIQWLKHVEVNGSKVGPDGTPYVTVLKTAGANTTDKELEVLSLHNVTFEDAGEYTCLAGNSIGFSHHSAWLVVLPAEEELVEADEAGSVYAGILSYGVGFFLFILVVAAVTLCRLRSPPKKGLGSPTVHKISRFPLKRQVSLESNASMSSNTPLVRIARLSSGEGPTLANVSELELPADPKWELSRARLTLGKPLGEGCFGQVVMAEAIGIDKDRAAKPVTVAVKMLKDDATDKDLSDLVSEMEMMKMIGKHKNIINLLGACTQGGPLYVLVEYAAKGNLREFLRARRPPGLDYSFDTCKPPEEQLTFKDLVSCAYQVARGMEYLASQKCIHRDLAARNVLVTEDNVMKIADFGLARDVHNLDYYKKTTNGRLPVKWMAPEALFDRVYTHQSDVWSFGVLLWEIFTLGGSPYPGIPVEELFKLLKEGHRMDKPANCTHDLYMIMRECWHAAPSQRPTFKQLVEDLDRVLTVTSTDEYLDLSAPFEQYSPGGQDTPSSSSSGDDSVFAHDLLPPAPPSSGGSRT
# procedure.summary: Kinase assay, binding constants (Kd), kinase-tagged T7 phage, qPCR
readout.kind: Kd

>>> assay_value("C[C@@H](Oc1ccc2[nH]nc(-c3ccc(N4CCS(=O)(=O)CC4)nc3)c2c1)c1c(Cl)cncc1Cl [Example 1]")
"1 to 20 nM"
>>> assay_value("C[C@@H](Oc1ccc2[nH]nc(-c3cnn(C4CCN(C(N)=O)CC4)c3)c2c1)c1c(Cl)cncc1Cl [Example 68]")
"1 to 20 nM"
>>> assay_value("COC(=O)N1CC2(C1)CN(c1ncc(-c3n[nH]c4ccc(O[C@H](C)c5c(C)cnnc5C)cc34)cn1)C2 [Example 143]")
"1 to 20 nM"
>>> assay_value("COc1cc2[nH]nc(-c3cnc(N4CC(O)C4)c(C#N)c3)c2cc1O[C@H](C)c1c(Cl)cncc1Cl [Example 326]")
"1 to 20 nM"
>>> assay_value("Cc1cnnc(C)c1[C@@H](C)Oc1ccc2[nH]nc(-c3cnc(N4CCC5(CC4)CCS(=O)(=O)C5)nc3)c2c1 [Example 152]")
"1 to 20 nM"
>>> assay_value("COc1cc2[nH]nc(-c3cnc(N4CC(O)C4)c(C#N)c3)c2cc1O[C@H](C)c1c(C)cnnc1C [Example 320]")
"20 to 100 nM"
>>> assay_value("Cc1ncc(Cl)c([C@@H](C)Oc2ccc3[nH]nc(-c4cnn(C5CCOCC5)c4)c3c2)c1Cl [Example 104]")
"1 to 20 nM"
>>> assay_value("Cc1cnnc(C)c1[C@H](C)Oc1ccc2[nH]nc(-c3cnc(N4CC5(C4)CN(S(C)(=O)=O)C5)nc3)c2c1 [Example 155]")
"> 300 nM"
>>> assay_value("COC(=O)N1CCC2(CC1)CN(c1ccc(-c3n[nH]c4ccc(O[C@H](C)c5c(Cl)cncc5Cl)cc34)cn1)C2 [Example 125]")
"1 to 20 nM"
>>> assay_value("COc1cc2[nH]nc(-c3cnc(N4CC5(C4)CN(S(C)(=O)=O)C5)c(CN(C)C)c3)c2cc1O[C@H](C)c1c(Cl)cncc1Cl [Example 357]")
"100 to 300 nM"
>>> assay_value("COc1cc2[nH]nc(-c3cnc(N4CCC4)c(C#N)c3)c2cc1O[C@H](C)c1c(C)cnnc1C [Example 322]")
"20 to 100 nM"
>>> assay_value("COc1cc2[nH]nc(-c3ccc(N4CC5(C4)CN(S(C)(=O)=O)C5)nc3)c2cc1O[C@H](C)c1c(Cl)cncc1Cl [Example 191]")
"1 to 20 nM"
>>> assay_value("C[C@@H](Oc1ccc2[nH]nc(-c3cnc(N4CCCN(C5COC5)CC4)nc3)c2c1)c1c(Cl)cncc1Cl [Example 60]")
"1 to 20 nM"
>>> assay_value("Cc1ncc(Cl)c([C@@H](C)Oc2cc3c(-c4ccc(N5CC6(C5)CN(S(C)(=O)=O)C6)nc4)n[nH]c3cc2F)c1Cl [Example 266]")
"1 to 20 nM"

Value source: patent US20240109865A1
